Give pIC50 for every item shown.
- SYSTEM TESTED: IDH1 R132H enzyme (Homo sapiens (Human), UniProt O75874, R132H)
- Sequence (O75874 whole entry R132H): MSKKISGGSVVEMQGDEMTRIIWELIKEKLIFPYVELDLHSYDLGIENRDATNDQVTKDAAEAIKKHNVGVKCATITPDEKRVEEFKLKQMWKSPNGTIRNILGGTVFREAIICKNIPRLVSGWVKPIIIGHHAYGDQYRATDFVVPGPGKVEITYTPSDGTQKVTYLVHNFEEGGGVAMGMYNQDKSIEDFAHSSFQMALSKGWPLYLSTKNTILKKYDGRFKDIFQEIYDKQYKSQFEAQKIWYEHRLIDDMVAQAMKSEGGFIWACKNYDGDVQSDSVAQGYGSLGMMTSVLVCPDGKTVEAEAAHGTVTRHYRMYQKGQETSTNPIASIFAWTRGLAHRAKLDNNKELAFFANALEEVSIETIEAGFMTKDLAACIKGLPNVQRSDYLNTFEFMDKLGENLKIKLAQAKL
- MEASUREMENT NOTES: Mutant IDH1 R132H biochemical assay
- COND: NADPH consumption, luminescent readout; 1.5 nM enzyme, 1 μM NADPH, 250 μM α-KG, 30 minutes, 32° C.
One number for each entry, as −log10 of the molar value.

Give me pIC50 for each of these molecules, listed below.
1. COC(=O)c1ccc2c(c1)nc(C(C)c1ccc(OC(F)(F)F)cc1)n2[C@H]1C[C@@H](C)CC(C)(C)C1 (single isomer, unassigned) [Reference compound 2-4-3, reference compound]
2. COC(=O)c1ccc2c(c1)nc(Cc1cccc(OC(F)(F)F)c1)n2[C@H]1C[C@@H](C)CC(C)(C)C1 (racemic)

## Result
1: 5.30; 2: 5.00

###

- SYSTEM TESTED: mutated isocitrate dehydrogenase (mIDH) protein, LN229 R132H cells (Homo sapiens (Human), UniProt O75874, R132H)
- Sequence (O75874 whole entry R132H): as above
- MEASUREMENT NOTES: Mutant IDH1 cellular assay (2-HG in medium of LN229 R132H cells)
- COND: 2-HG levels in medium, 24 hours
The label is Satisfied for IC50 below 2000 nM and Not satisfied for IC50 equal to or exceeding 2000 nM.

>  <COMPOUND>
COc1cc2c(cc1C(=O)O)nc(Cc1ccc(OC(F)(F)F)cc1)n2[C@H]1C[C@@H](C)CC(C)(C)C1 (stereo in doubt) [Example 2-45-2]

>  <QUALITATIVE LABEL>
Satisfied

$$$$
>  <COMPOUND>
CC(C)Oc1ccc(Cc2nc3cc(C(=O)O)ccc3n2[C@@H]2C[C@H](C)CC(C)(C)C2)cc1 (stereo in doubt) [Example 2-32]

>  <QUALITATIVE LABEL>
Not satisfied

$$$$
>  <COMPOUND>
COc1cc2c(cc1C(=O)O)nc(Cc1ccc(OC(F)(F)F)cc1)n2[C@@H]1C[C@H](C)CC(C)(C)C1 (single isomer, unassigned) [Example 2-45-1]

>  <QUALITATIVE LABEL>
Satisfied

$$$$

## Task Determine if CC(C)Oc1ccc(Cc2nc3cc(C(=O)O)ccc3n2[C@H]2C[C@@H](C)CC(C)(C)C2)cc1 (stereo in doubt) [Example 2-32-2] shows IC50 strictly lower than 2000 nM.
## Result Not satisfied

## Task For this compound, is IC50 lower than 2000 nM? CC(C)c1ccc(Cc2nc3cc(C(=O)O)ccc3n2[C@@H]2C[C@H](C)CC(C)(C)C2)cc1 (stereo in doubt) [Example 2-33]
## Result Satisfied

## Task I'd appreciate it if you could check whether Cc1cc2c(cc1C(=O)O)nc(Cc1ccc(OC(F)(F)F)cc1)n2[C@@H]1C[C@H](C)CC(C)(C)C1 (stereo in doubt) [Example 2-44-1] has IC50 smaller than 2000 nM.
## Result Satisfied

###

Please provide measured IC50 for the entries that follow.
- SYSTEM TESTED: IDH1 R132H enzyme (Homo sapiens (Human), UniProt O75874, R132H)
- MEASUREMENT NOTES: Mutant IDH1 R132H biochemical assay
- COND: NADPH consumption, luminescent readout; 1.5 nM enzyme, 1 μM NADPH, 250 μM α-KG, 30 minutes, 32° C.

Worked examples, 5 compounds total:
>  <COMPOUND>
Cc1cc2c(cc1C(=O)O)nc(Cc1ccc(OC(F)(F)F)cc1)n2[C@@H]1C[C@H](C)CC(C)(C)C1 (stereo in doubt) [Example 2-44-1]

>  <IC50>
20 nM

$$$$
>  <COMPOUND>
Cc1cc2c(cc1C(=O)O)nc(Cc1ccc(OC(F)(F)F)cc1)n2[C@H]1C[C@@H](C)CC(C)(C)C1 (stereo in doubt) [Example 2-44-2]

>  <IC50>
130 nM

$$$$
>  <COMPOUND>
COC(=O)c1cc2nc(Cc3ccc(OC(F)(F)F)cc3)n([C@H]3C[C@@H](C)CC(C)(C)C3)c2cc1OC(C)C (single isomer, unassigned) [Example 2-20-2]

>  <IC50>
3300 nM

$$$$
>  <COMPOUND>
COC(=O)c1ccc2c(c1)nc(C(C)(C)c1ccc(OC(F)(F)F)cc1)n2[C@H]1C[C@@H](C)CC(C)(C)C1 (racemic) [Reference compound 2-5, reference compound]

>  <IC50>
> 10000 nM

$$$$
>  <COMPOUND>
COC(=O)c1ccc2c(c1)nc(Cc1ccccc1OC(F)(F)F)n2[C@@H]1C[C@H](C)CC(C)(C)C1 (racemic) [Example 2-13]

>  <IC50>
10000 nM

$$$$

Batch request: IC50 per item, same order as input.
1. C[C@H]1C[C@@H](n2c(Cc3ccc(C(C)(C)C)cc3)nc3cc(C(=O)O)ccc32)CC(C)(C)C1 (stereo in doubt) [Example 2-37]
2. COC(=O)c1ccc2c(c1)nc(Cc1ccc(F)cc1)n2[C@H]1C[C@@H](C)CC(C)(C)C1 (racemic) [Example 2-9]
3. CC(C)Oc1cc2c(cc1C(=O)O)nc(Cc1ccc(OC(F)(F)F)cc1)n2[C@@H]1C[C@H](C)CC(C)(C)C1 (stereo in doubt) [Example 2-46-1]

## Result
50 nM
4200 nM
120 nM

###

- SYSTEM TESTED: IDH1 R132H enzyme (Homo sapiens (Human), UniProt O75874, R132H)
- MEASUREMENT NOTES: Mutant IDH1 R132H biochemical assay
- COND: NADPH consumption, luminescent readout; 1.5 nM enzyme, 1 μM NADPH, 250 μM α-KG, 30 minutes, 32° C.
REPORTED ENDPOINT: pIC50
Answers are plain numbers, as −log10 of the molar value.

>  <MOLECULE>
CC(C)Oc1ccc(Cc2nc3cc(C(=O)O)ccc3n2[C@H]2C[C@@H](C)CC(C)(C)C2)cc1 (stereo in doubt)

>  <OBSERVED VALUE>
6.52

$$$$

// each molecule listed below needs its pIC50
1. Cc1cc2c(cc1C(=O)O)nc(Cc1ccc(OC(F)(F)F)cc1)n2[C@@H]1C[C@H](C)CC(C)(C)C1 (stereo in doubt) [Example 2-44]
2. Cc1ccc(Cc2nc3cc(C(=O)O)ccc3n2[C@@H]2C[C@H](C)CC(C)(C)C2)cc1 (stereo in doubt)

## Result
1. 7.15
2. 6.24

###

- SYSTEM TESTED: IDH1 R132H enzyme (Homo sapiens (Human), UniProt O75874, R132H)
- MEASUREMENT NOTES: Mutant IDH1 R132H biochemical assay
- COND: NADPH consumption, luminescent readout; 1.5 nM enzyme, 1 μM NADPH, 250 μM α-KG, 30 minutes, 32° C.
REPORTED ENDPOINT: IC50

Below, 2 compounds whose answers are already recorded.
>  <COMPOUND>
COc1cc2c(cc1CCC(=O)O)nc(Cc1ccc(OC(F)(F)F)cc1)n2[C@@H]1C[C@H](C)CC(C)(C)C1 (single isomer, unassigned) [Example 2-50-1]

>  <IC50>
200 nM

$$$$
>  <COMPOUND>
CC(C)c1ccc(Cc2nc3cc(C(=O)O)ccc3n2[C@@H]2C[C@H](C)CC(C)(C)C2)cc1 (stereo in doubt) [Example 2-33]

>  <IC50>
50 nM

$$$$

# input for lookup
## Task Quick one: give measured IC50 for COC(=O)c1ccc2c(c1)nc(C(C)c1ccc(OC(F)(F)F)cc1)n2[C@H]1C[C@@H](C)CC(C)(C)C1 (single isomer, unassigned) [Reference compound 2-4-1, reference compound]
## Result > 10000 nM

###

- SYSTEM TESTED: IDH1 R132H enzyme (Homo sapiens (Human), UniProt O75874, R132H)
- MEASUREMENT NOTES: Mutant IDH1 R132H biochemical assay
- COND: NADPH consumption, luminescent readout; 1.5 nM enzyme, 1 μM NADPH, 250 μM α-KG, 30 minutes, 32° C.
pIC50: −log10 of the molar value.
Label class 1 for high-side pIC50 (at or above 6) and class 0 for low-side pIC50 (below it).

>  <COMPOUND>
C[C@H]1C[C@@H](n2c(Cc3cccc(OC(F)(F)F)c3)nc3cc(C(=O)O)ccc32)CC(C)(C)C1 (stereo in doubt) [Example 2-40]

>  <QUALITATIVE LABEL>
class 0

$$$$
>  <COMPOUND>
C[C@H]1C[C@@H](n2c(Cc3ccccc3OC(F)(F)F)nc3cc(C(=O)O)ccc32)CC(C)(C)C1 (stereo in doubt) [Example 2-39]

>  <QUALITATIVE LABEL>
class 0

$$$$
>  <COMPOUND>
COc1cc2c(cc1C(=O)O)nc(Cc1ccc(OC(F)(F)F)cc1)n2[C@@H]1C[C@H](C)CC(C)(C)C1 (racemic) [Example 2-45]

>  <QUALITATIVE LABEL>
class 1

$$$$
>  <COMPOUND>
COC(=O)c1ccc2c(c1)nc(-c1ccc(OC(F)(F)F)cc1)n2[C@H]1C[C@@H](C)CC(C)(C)C1 (racemic) [Example 2-1]

>  <QUALITATIVE LABEL>
class 0

$$$$
>  <COMPOUND>
CC(C)Oc1cc2c(cc1C(=O)O)nc(Cc1ccc(OC(F)(F)F)cc1)n2[C@H]1C[C@@H](C)CC(C)(C)C1 (stereo in doubt) [Example 2-46-2]

>  <QUALITATIVE LABEL>
class 1

$$$$
>  <COMPOUND>
COC(=O)c1ccc2c(c1)nc(Cc1ccc(OC(F)(F)F)cc1)n2[C@H]1C[C@@H](C)CC(C)(C)C1 (single isomer, unassigned) [Example 2-3-2]

>  <QUALITATIVE LABEL>
class 1

$$$$
>  <COMPOUND>
COC(=O)c1ccc2c(c1)nc(Cc1ccc(C(C)C)cc1)n2[C@H]1C[C@@H](C)CC(C)(C)C1 (racemic) [Example 2-7]

>  <QUALITATIVE LABEL>
class 1

$$$$

## Task // inclusive: pIC50 at least 6? input: CC(C)Oc1ccc(Cc2nc3cc(C(=O)O)ccc3n2[C@@H]2C[C@H](C)CC(C)(C)C2)cc1 (stereo in doubt) [Example 2-32-1]
## Result class 1
